# Tested on: COLO 205
# Experiment description: NCI tumour cell line growth inhibition, 48 h
Calls of active or inactive are those of the source. Rule as the data show it: active = GI50 up to about 1.1 µM and inactive = higher.
Quantity: GI50

Examples with answers:
Compound	Result
CCN(CC)CCC1(C2CCCCC2)CCC(=O)NC1=O (stereo unspecified)	> 100 µM (inactive)
COc1nc(C#CC2(O)CCCCC2)nc(OC)n1	14.7 µM (inactive)
CCOC(=O)N1CCN(c2c(C)nc(C)nc2O)CC1	> 100 µM (inactive)
CCn1cc(/C=C/C(C)c2cn(CC)c(=O)[nH]c2=O)c(=O)[nH]c1=O (stereo unspecified)	> 100 µM (inactive)
OCC1CCC(n2cnc3c(O)ncnc32)O1 (stereo unspecified)	> 100 µM (inactive)

As a next step, examine the compound that follows.
May I ask what GI50 has been recorded for COc1ccc(NC(=O)CC/C(CC(=O)c2ccco2)=N/Nc2ccc([N+](=O)[O-])cc2[N+](=O)[O-])cc1 ? > 100 µM (inactive)
